B1: Twister Ribozyme (parent)
chain: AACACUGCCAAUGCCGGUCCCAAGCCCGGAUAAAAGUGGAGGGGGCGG

variants of: B1; test: self-cleavage, relative activity (ratio to wild type); higher = more cleavage; co-transcriptional
experimental-endpoint: self-cleavage

AACACUGCCAAUGCCGGUACCAAGCCCGGAUAAAAAUGGAGGGGGCGG
0.102
AACACUGCCAAUGCCGGUCCCUUGCCCGGAUAAAAGUGGAGGGGGCGG
0.102
AACACUGCCAAUGCCGGACCCAAGCCCGGAUAAAAGUGCAGGGGGCGG
0.102
